# system name: Vhr1 (Saccharomyces cerevisiae) (UniProt P40522)
# Sequence: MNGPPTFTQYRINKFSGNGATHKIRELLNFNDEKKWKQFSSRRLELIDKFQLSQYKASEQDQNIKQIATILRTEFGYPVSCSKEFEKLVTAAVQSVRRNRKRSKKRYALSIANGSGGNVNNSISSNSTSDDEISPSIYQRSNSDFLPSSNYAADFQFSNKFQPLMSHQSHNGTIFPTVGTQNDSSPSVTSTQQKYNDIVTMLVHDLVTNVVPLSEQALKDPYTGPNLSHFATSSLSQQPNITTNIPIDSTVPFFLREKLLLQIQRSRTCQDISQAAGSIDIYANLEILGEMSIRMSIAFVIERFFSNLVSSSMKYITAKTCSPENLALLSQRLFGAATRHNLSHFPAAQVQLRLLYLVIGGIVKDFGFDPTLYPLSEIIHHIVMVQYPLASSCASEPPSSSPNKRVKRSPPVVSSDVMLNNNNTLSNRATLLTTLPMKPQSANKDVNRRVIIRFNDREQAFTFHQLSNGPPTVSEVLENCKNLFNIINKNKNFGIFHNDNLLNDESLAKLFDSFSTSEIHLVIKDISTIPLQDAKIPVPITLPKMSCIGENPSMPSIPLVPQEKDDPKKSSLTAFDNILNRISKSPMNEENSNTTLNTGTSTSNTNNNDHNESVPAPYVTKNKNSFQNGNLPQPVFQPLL
# reported conditions: 200 nM
experimental endpoint: binding signal (PBM E-score (-0.5 to 0.5))

Worked set:
sequence chain: GAGTCACC (double strand) [8-mer GAGTCACC]
readout value: 0.491
--
sequence chain: ATGAGTCA (double strand) [8-mer ATGAGTCA]
readout value: 0.492

**Query** binding signal (PBM E-score (-0.5 to 0.5)) for GAGTCATC (double strand) [8-mer GAGTCATC] ?
**Result** 0.492
